system: J2 IgG WT, PDB:9OJV_1+PDB:9OJV_2; assay: BLI steady state; details: 400 mM KCl; kinetic Kd 33 ± 6 nM; BLI: 25 mM Tris-HCl pH 7.5, 100-400 mM KCl (per row), 2 mM MgCl2, 25 C, IgG immobilized on Protein A; FP: 25 mM Tris-HCl pH 7.5, 100 mM KCl, 2 mM MgCl2, 21 C
MEASURED_PARAMETER: Kd (µM)
Express your answer in µM, writing the number without its unit.

I'd like to know its Kd. The sequence in question is GUUGUAAAGAAAUAUAACAGGCUUGUACCAUUGAUGGAAA / UUUCCAUCAAUGGUACAAGCCUGUUAUAUUUCUUUACAAC [40-bp dsRNA]
0.08
